Hey, just so you know, these numbers are from ChEMBL document CHEMBL1156011.

# experimentalSystem: Urokinase-type plasminogen activator (Homo sapiens, UniProt P00749)
Lab note: anything with IC50 below 500 nM is marked rule met; values at 500 nM or higher are marked rule not met.

Cc1ccc(C(=O)O)c(Oc2nc(Oc3cc(O)cc(-c4cccc(CN)c4)c3)c(F)cc2F)c1
rule met
CN(C)Cc1cccc(-c2cccc(Oc3nc(Oc4cc(N(C)C)ccc4C(=O)O)c(F)cc3F)c2)c1
rule not met
CNCc1cccc(-c2cccc(Oc3nc(Oc4cc(N(C)C)ccc4C(=O)O)c(F)cc3F)c2)c1
rule not met
Cc1ccc(C(=O)O)c(Oc2nc(Oc3cc(N)cc(-c4cccc(CN)c4)c3)c(F)c(N3CCC(N(C)C)C3)c2F)c1 (centres undefined)
rule met
Cc1ccc(C(=O)O)c(Oc2nc(Oc3cc(-c4cccc(CN)c4)ccc3N)c(F)cc2F)c1
rule met

IC50 under 500 nM? Item: Cc1ccc(C(=O)O)c(Oc2nc(Oc3cccc(-c4cccc(CN)c4)c3)c(F)cc2F)c1
rule met

Strictly below 500 nM in IC50? CN(C)c1ccc(C(=O)O)c(Oc2nc(Oc3cccc(-c4ccc(CN)cc4)c3)c(F)cc2F)c1
rule not met

Criterion: IC50 strictly below 500 nM. Is it met by Cc1ccc(-n2cnnn2)c(Oc2nc(Oc3cccc(-c4cccc(CN)c4)c3)c(F)cc2F)c1 ?
rule not met

I wonder whether NCc1cccc(-c2cccc(Oc3nc(Oc4ccc(C(=O)O)cc4)c(F)cc3F)c2)c1 has IC50 below 500 nM. Can you tell?
rule not met

Lab note: IC50 threshold 500 nM. Does this molecule come in strictly under it? CN(C)CCN(C)c1c(F)c(Oc2cccc(-c3cccc(CN)c3)c2)nc(Oc2cc(N(C)C)ccc2C(=O)O)c1F
rule met

Does CN(C)c1ccc(C(=O)O)c(Oc2nc(Oc3cccc(-c4cccc(CN)c4)c3)c(F)c(N3CCOCC3)c2F)c1 have IC50 strictly under 500 nM?
rule not met

====

Notes on IC50 obtained with Tissue-type plasminogen activator (Homo sapiens).
Sequence (P00750 whole entry): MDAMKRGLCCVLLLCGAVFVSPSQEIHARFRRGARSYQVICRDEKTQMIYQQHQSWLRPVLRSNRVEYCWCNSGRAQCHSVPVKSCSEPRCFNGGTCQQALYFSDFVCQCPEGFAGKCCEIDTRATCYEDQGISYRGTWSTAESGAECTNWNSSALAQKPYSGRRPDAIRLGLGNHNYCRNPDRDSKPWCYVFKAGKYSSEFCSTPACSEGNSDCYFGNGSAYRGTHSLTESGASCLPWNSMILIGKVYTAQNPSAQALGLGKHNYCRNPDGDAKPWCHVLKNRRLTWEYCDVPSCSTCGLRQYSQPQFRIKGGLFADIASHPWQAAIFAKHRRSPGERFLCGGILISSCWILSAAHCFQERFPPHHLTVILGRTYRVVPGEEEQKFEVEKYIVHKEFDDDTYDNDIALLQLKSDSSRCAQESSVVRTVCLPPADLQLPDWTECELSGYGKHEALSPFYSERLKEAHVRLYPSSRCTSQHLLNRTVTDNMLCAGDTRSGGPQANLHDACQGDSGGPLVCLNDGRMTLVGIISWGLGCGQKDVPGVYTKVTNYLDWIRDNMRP

CN(C)c1ccc(C(=O)O)c(Oc2nc(Oc3cccc(-c4cccc(CN)c4)c3)c(F)c(N3CCOCC3)c2F)c1
10 µM
CNc1c(F)c(Oc2cccc(-c3cccc(CN)c3)c2)nc(Oc2cc(N(C)C)ccc2C(=O)O)c1F
16 µM
Cc1ccc(C(=O)O)c(Oc2nc(Oc3cc(-c4cccc(CN)c4)ccc3N)c(F)cc2F)c1
15 µM
Cc1ccc(C(=O)O)c(Oc2nc(Oc3cc(N)cc(-c4cccc(CN)c4)c3)c(F)c(N3CCC(N(C)C)C3)c2F)c1 (configuration not stated)
8.5 µM
COc1ccc(C(=O)O)c(Oc2nc(Oc3cccc(-c4cccc(CN)c4)c3)c(F)cc2F)c1
> 30 µM

// output IC50; input CN(C)c1ccc(C(=O)O)c(Oc2nc(Oc3cccc(-c4cccc(CN)c4)c3)c(F)c(N3CCC(N(C)C)C3)c2F)c1 (configuration not stated) ; system Tissue-type plasminogen activator (Homo sapiens)
5.2 µM

With Tissue-type plasminogen activator (Homo sapiens) as the test system, provide measured IC50 for this molecule: CN(C)c1ccc(C(=O)O)c(Oc2nc(Oc3cccc(-c4cccc(CN)c4)c3)c(F)cc2F)c1
18 µM

====

# assayMethodText: Volume of distribution in rat
# Type: ADME, organism-based
# details: in vivo
Parameter: Vd. Scope: all listed entries.

# example entries with known answers
Cc1ccc(C(=O)O)c(Oc2nc(Oc3cc(N)cc(-c4cccc(CN)c4)c3)c(F)cc2F)c1
4.6 L/kg
CN(C)c1ccc(C(=O)O)c(Oc2nc(Oc3cccc(-c4cccc(CN)c4)c3)c(F)c(N3CCC(N(C)C)C3)c2F)c1 (centres undefined)
1 L/kg
Cc1ccc(C(=O)O)c(Oc2nc(Oc3cccc(-c4cccc(CN)c4)c3)c(F)cc2F)c1
0.7 L/kg

Now examine the next entry.
Give Vd for CN(C)c1ccc(C(=O)O)c(Oc2nc(Oc3cccc(-c4cccc(CN)c4)c3)c(F)cc2F)c1
1.15 L/kg

====

Notes on pIC50 obtained with Plasminogen (Homo sapiens, UniProt P00747).
Sequence (P00747 97-580 limits assumed): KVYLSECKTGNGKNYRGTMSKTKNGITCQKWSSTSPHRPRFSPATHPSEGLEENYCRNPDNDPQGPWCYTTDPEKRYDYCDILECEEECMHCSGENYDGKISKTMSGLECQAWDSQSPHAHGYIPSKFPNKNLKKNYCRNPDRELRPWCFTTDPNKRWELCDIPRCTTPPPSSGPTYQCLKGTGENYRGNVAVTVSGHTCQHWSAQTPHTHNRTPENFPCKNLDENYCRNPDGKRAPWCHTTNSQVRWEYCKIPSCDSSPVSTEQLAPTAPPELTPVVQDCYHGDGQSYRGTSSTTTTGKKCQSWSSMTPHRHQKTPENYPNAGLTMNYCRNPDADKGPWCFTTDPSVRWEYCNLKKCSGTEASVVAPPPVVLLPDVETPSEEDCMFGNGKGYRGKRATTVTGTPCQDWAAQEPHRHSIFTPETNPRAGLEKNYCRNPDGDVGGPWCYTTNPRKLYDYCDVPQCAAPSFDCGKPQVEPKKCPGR
Sequence (P00747 581-810 limits assumed): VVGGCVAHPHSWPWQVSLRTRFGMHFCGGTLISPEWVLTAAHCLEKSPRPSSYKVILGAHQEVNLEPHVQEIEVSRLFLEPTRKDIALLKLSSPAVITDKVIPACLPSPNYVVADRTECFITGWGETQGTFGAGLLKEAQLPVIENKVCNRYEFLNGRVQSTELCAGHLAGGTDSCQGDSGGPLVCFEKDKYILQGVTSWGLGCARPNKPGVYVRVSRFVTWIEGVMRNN
// pIC50: -log10(molar conc.)

Cc1ccc(C(=O)O)c(Oc2nc(Oc3cc(N)cc(-c4cccc(CN)c4)c3)c(F)c(N3CCC(N(C)C)C3)c2F)c1 (stereo not given)
5.52
CN(C)CCN(C)c1c(F)c(Oc2cccc(-c3cccc(CN)c3)c2)nc(Oc2cc(N(C)C)ccc2C(=O)O)c1F
5.20
Cc1ccc(C(=O)O)c(Oc2nc(Oc3cc(O)cc(-c4cccc(CN)c4)c3)c(F)cc2F)c1
5.26

Report pIC50 under test system Plasminogen (Homo sapiens, UniProt P00747) for Cc1ccc(C(=O)O)c(Oc2nc(Oc3cc(CN)cc(-c4cccc(CN)c4)c3)c(F)cc2F)c1 .
5.57

State recorded pIC50 with Plasminogen (Homo sapiens, UniProt P00747), entry Cc1c(F)c(Oc2cccc(-c3cccc(C(=N)N)c3)c2)nc(Oc2cc(N(C)C)ccc2C(=O)O)c1F , no comment.
5.68

====

Below are IC50 values recorded for Urokinase-type plasminogen activator (Homo sapiens, UniProt P00749).
Give your result in nM as a bare value.

NCc1cccc(-c2cccc(Oc3nc(Oc4ccccc4C(=O)O)c(F)cc3F)c2)c1
840

API: the following record is the query input.
Fill: IC50 (Urokinase-type plasminogen activator (Homo sapiens, UniProt P00749)) for this compound CN(C)c1ccc(C(=O)O)c(Oc2nc(Oc3cccc(-c4cccc(CN)c4)c3)c(F)c(N(C)C)c2F)c1
530
